- Tested on: RARa homodimer (NR concentration 270 nM)
- method_summary: PBM binding z-score (relative to random genomic background probes); higher = stronger binding; sequences stand for … in GC…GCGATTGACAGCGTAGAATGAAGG
Respond with Fulfilled for PBM binding z-score values of 0.8 and above, Not fulfilled for values below.

primary_sequence	cat
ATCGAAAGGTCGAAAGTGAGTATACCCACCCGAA	Not fulfilled
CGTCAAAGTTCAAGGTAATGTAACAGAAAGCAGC	Fulfilled
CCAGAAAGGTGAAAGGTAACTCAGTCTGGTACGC	Not fulfilled
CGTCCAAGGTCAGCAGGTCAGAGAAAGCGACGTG	Fulfilled
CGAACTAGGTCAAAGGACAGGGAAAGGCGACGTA	Not fulfilled
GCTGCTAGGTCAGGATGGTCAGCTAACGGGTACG	Not fulfilled
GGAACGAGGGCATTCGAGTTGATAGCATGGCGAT	Not fulfilled
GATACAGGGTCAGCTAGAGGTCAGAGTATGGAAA	Fulfilled
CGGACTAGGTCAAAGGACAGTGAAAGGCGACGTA	Not fulfilled
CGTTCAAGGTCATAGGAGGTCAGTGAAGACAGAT	Fulfilled
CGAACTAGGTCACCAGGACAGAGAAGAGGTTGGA	Not fulfilled

###

- System: VDR:RXRa (NR concentration 270 nM, RXRa partner concentration 90 nM)
- method_summary: PBM binding z-score (relative to random genomic background probes); higher = stronger binding; sequences stand for … in GC…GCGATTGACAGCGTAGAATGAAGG
measurement_name: PBM binding z-score

primary_sequence	target_or_system	result_number
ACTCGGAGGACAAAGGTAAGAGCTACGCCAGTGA	VDR:RXRa (NR concentration 270 nM, RXRa partner concentration 90 nM)	-0.371
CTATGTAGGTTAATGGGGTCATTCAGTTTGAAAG	VDR:RXRa (NR concentration 270 nM, RXRa partner concentration 90 nM)	7.83
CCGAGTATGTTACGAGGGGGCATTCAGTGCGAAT	VDR:RXRa (NR concentration 270 nM, RXRa partner concentration 90 nM)	4.06
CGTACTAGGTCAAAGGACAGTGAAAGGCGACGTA	VDR:RXRa (NR concentration 270 nM, RXRa partner concentration 90 nM)	1.33
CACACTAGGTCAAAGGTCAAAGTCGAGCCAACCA	VDR:RXRa (NR concentration 270 nM, RXRa partner concentration 90 nM)	6.85
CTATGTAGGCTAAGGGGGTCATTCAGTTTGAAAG	VDR:RXRa (NR concentration 270 nM, RXRa partner concentration 90 nM)	6.41
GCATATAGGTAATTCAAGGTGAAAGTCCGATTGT	VDR:RXRa (NR concentration 270 nM, RXRa partner concentration 90 nM)	0.627
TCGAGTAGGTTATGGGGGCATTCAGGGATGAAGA	VDR:RXRa (NR concentration 270 nM, RXRa partner concentration 90 nM)	3.34
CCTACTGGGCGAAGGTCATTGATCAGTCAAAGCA	VDR:RXRa (NR concentration 270 nM, RXRa partner concentration 90 nM)	2.18
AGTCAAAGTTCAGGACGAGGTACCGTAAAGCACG	VDR:RXRa (NR concentration 270 nM, RXRa partner concentration 90 nM)	2.08
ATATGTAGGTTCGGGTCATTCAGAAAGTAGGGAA	VDR:RXRa (NR concentration 270 nM, RXRa partner concentration 90 nM)	3.72
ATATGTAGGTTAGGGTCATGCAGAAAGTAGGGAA	VDR:RXRa (NR concentration 270 nM, RXRa partner concentration 90 nM)	4.36

###

- Tested on: THRa homodimer (NR concentration 90 nM)
- method_summary: PBM binding z-score (relative to random genomic background probes); higher = stronger binding; sequences stand for … in GC…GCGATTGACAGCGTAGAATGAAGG
# reported PBM binding z-score; entries follow

primary_sequence	PBM binding z-score
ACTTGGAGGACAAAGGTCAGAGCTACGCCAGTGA	0.496
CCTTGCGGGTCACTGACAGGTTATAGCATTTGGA	0.354
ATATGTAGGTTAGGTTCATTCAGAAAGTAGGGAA	0.787
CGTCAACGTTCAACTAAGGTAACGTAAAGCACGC	1.68
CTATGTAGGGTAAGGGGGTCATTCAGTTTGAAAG	2.95
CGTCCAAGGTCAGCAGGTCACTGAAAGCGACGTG	2.37
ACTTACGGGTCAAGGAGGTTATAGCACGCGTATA	0.489
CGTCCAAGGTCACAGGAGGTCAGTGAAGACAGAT	3.66
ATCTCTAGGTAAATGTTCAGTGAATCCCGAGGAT	0.171
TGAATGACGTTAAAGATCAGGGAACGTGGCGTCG	-0.747
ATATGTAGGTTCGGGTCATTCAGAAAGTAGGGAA	2.82
CCTACTGGGCAAAAAAGGTCATTGATGCCGATAA	0.0156
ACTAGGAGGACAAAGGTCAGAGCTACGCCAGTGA	0.874
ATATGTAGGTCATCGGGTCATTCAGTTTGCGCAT	3
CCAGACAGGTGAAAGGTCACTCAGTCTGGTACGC	1.02
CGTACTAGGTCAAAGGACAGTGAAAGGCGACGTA	0.4
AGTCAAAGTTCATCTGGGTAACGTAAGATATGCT	0.135
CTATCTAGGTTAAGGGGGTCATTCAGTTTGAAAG	2.14
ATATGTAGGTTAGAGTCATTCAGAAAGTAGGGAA	0.254
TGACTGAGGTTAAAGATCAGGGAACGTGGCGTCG	0.422
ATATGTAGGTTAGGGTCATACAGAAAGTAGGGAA	3.09
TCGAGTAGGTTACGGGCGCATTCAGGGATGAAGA	-0.327
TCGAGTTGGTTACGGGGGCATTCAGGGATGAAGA	1.87
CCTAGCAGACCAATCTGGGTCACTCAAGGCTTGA	0.374
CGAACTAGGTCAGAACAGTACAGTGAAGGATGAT	0.222
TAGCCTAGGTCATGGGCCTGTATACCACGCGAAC	1.31

###

- System: LXRb homodimer (NR concentration 270 nM)
- method_summary: PBM binding z-score (relative to random genomic background probes); higher = stronger binding; sequences stand for … in GC…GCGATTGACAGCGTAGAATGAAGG
# reported PBM binding z-score; entries follow

primary_sequence	PBM binding z-score
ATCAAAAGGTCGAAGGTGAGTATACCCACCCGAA	0.821
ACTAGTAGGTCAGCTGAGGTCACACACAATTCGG	1.5
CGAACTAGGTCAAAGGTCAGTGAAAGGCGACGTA	0.335
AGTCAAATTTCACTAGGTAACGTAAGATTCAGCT	0.175
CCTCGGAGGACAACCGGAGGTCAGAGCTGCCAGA	-0.532
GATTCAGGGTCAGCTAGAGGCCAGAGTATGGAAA	-0.355
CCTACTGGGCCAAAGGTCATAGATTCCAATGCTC	0.244
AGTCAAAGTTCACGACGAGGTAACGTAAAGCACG	0.875
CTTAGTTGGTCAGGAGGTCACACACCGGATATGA	0.947
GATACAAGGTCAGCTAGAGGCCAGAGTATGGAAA	-0.103
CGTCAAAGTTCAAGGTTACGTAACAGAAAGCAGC	1.18
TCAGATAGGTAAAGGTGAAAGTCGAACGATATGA	-0.401
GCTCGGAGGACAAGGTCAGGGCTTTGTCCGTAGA	-0.689
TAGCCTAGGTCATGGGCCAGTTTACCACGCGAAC	-0.093
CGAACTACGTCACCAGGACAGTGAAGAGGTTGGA	-0.676
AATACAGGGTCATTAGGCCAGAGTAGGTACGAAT	1.52
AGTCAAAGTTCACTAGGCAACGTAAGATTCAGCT	0.757
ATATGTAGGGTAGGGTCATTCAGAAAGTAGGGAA	4.59
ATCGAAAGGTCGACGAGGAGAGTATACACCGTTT	0.517
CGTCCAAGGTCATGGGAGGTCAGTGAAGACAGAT	0.656
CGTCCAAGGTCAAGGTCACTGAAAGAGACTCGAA	0.938
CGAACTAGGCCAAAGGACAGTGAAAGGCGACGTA	-1.2
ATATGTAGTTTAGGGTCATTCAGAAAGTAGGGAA	2.03
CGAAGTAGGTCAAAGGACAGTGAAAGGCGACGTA	-0.098
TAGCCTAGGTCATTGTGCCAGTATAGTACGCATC	0.948
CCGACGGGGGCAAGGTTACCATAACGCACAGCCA	3.34

###

- Test system: FXR:RXRa (NR concentration 270 nM, RXRa partner concentration 90 nM)
- method_summary: PBM binding z-score (relative to random genomic background probes); higher = stronger binding; sequences stand for … in GC…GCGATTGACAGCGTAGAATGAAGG
# reported PBM binding z-score; entries follow

primary_sequence	target_or_system	PBM binding z-score
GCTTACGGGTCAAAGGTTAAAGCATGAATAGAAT	FXR:RXRa (NR concentration 270 nM, RXRa partner concentration 90 nM)	7.68
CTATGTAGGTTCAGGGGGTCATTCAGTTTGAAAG	FXR:RXRa (NR concentration 270 nM, RXRa partner concentration 90 nM)	5.43
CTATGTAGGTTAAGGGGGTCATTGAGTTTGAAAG	FXR:RXRa (NR concentration 270 nM, RXRa partner concentration 90 nM)	5.19
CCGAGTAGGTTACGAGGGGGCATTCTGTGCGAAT	FXR:RXRa (NR concentration 270 nM, RXRa partner concentration 90 nM)	2.88
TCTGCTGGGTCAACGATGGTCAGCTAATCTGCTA	FXR:RXRa (NR concentration 270 nM, RXRa partner concentration 90 nM)	2.59
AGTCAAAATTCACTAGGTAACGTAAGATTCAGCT	FXR:RXRa (NR concentration 270 nM, RXRa partner concentration 90 nM)	0.492
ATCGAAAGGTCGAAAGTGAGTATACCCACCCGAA	FXR:RXRa (NR concentration 270 nM, RXRa partner concentration 90 nM)	3.56
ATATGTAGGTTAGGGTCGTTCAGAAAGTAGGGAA	FXR:RXRa (NR concentration 270 nM, RXRa partner concentration 90 nM)	2.59
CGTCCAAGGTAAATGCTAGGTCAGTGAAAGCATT	FXR:RXRa (NR concentration 270 nM, RXRa partner concentration 90 nM)	0.57
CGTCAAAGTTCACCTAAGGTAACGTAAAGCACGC	FXR:RXRa (NR concentration 270 nM, RXRa partner concentration 90 nM)	6.94
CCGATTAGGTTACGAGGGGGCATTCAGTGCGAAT	FXR:RXRa (NR concentration 270 nM, RXRa partner concentration 90 nM)	2.54
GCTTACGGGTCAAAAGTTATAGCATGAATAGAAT	FXR:RXRa (NR concentration 270 nM, RXRa partner concentration 90 nM)	5.09
